Origin of measurements: PubChem BioAssay AID1566

protocol.notes: inhibition of NOD2-driven NF-kB reporter – cell-based, luminescence, uHTS, HEK293 (AID 1566)
reported.conditions: HEK293 NOD2/NF-kB luciferase reporter, at 4 µM, stronger effect = higher value
About 1,800 (0.62%) of roughly 290,000 compounds were called active. The list comes from a sample in which actives are over-represented; it also holds close analogues and randomly drawn compounds.
The following compounds are shown together with reported inhibition values.
Write it as a number; the unit % goes unstated.

The cases that follow already have their inhibition on record.
Cc1cccc(-c2nc3c(c(SCC(=O)N4CCOCC4)n2)Cc2c(CO)cnc(C)c2O3)c1	42.3
Cc1cc(=O)[nH]c(SCC(=O)Nc2ccnc3ccccc23)n1	26.4
COc1ccc(-c2nc3c(c(SCC(=O)N4CCOCC4)n2)Cc2c(CO)cnc(C)c2O3)cc1	32
O=C(CN1C(=O)NC2(CCCC2)C1=O)N1CCN(S(=O)(=O)c2ccccc2Br)CC1	3.9
CCOCCCNS(=O)(=O)c1ccc(NC(=O)c2ccccc2)cc1	11.3

Sample COc1cccc(-c2nc3c(c(SCC(=O)N4CCOCC4)n2)Cc2c(CO)cnc(C)c2O3)c1 — what was its inhibition?
52.5

Sample Cc1cccc(NC(=O)COC(=O)C2C3CC4OC(=O)C2C4C3)c1C (stereo unspecified) — what was its inhibition?
-27.4

Sample O=C(NC1CCCCCCC1)c1cc(F)c(F)cc1Cl — what was its inhibition?
-57.3

Sample Cc1c(=O)n(OCc2ccccn2)c2ccccc2[n+]1[O-] — what was its inhibition?
9.3

Sample Fc1cccc(NC(=S)NCCc2ccccc2)c1 — what was its inhibition?
10

Sample CN(C)CCNC(=O)c1cc2cc(Br)ccc2oc1=O — what was its inhibition?
-0.6

---

protocol.notes: inhibition of NOD2-driven NF-kB reporter – cell-based, luminescence, uHTS, HEK293 (AID 1566)
reported.conditions: HEK293 NOD2/NF-kB luciferase reporter, at 4 µM, stronger effect = higher value
Screen size: about 290,000 compounds; about 1,800 (0.62%) were called active. Only a selection was taken, and actives are over-represented in it overall.
assay.endpoint: inhibition (%)
Write it as a number; the unit % goes unstated.

The cases that follow already have their inhibition on record.
CC(C)(C)C(=O)Nc1ccc(-c2cnco2)cc1	2.7
C#Cc1ccc([C@@H]2C=C(C(=O)Nc3ccccc3)O[C@H](OCC)[C@H]2CCCO)cc1	11.4
C/C(=N/NC(=O)Cc1c(C)[nH][nH]c1=O)c1ccc(O)cc1	-3
O=C(Nc1ccc2ccccc2n1)Nc1ccccc1F	-1.1
CCOC(=O)c1ccc(N2C(=O)C(CC(N)=O)N(NC(=O)c3cccc(F)c3)C2=S)cc1 (stereo unspecified)	4.2

With those in mind, consider the next compound.
Sample Cc1nn(-c2cc(N3CCCCC3)ccc2[N+](=O)[O-])c(=O)c2ccccc12 — what was its inhibition?
-6.2

---

protocol.notes: inhibition of NOD2-driven NF-kB reporter – cell-based, luminescence, uHTS, HEK293 (AID 1566)
reported.conditions: HEK293 NOD2/NF-kB luciferase reporter, at 4 µM
Hit rate of the full screen: of about 290,000 compounds, about 1,800 (0.62%) were called active. No stated cut-off is given here; in the data, active means inhibition above about 50%; inactive means the rest. The sample as a whole holds a higher share of actives than the screen did.
Your response should consist of one outcome taken from active, inactive

Recorded results for 5 molecules are shown here.
COC(=O)c1ccccc1NS(=O)(=O)c1ccc(NC(C)=O)cc1	inactive
CCN1CCN(CC(=O)N2c3ccccc3Sc3ccccc32)CC1	inactive
CC(=O)c1cn(CC(=O)Nc2ccccc2F)c2ccccc12	inactive
COc1ccc(-c2noc(CCC(=O)O)n2)cc1	inactive
COc1ccc(S(=O)(=O)NCc2cccnc2)cc1OC	inactive

Shift focus to the following entry.
Per the records of this test, what outcome belongs to CC(=O)c1ccc(S(=O)(=O)N(C)C(C)CCc2ccco2)cc1 (centres undefined) ?
active

---

protocol.notes: inhibition of NOD2-driven NF-kB reporter – cell-based, luminescence, uHTS, HEK293 (AID 1566)
reported.conditions: HEK293 NOD2/NF-kB luciferase reporter, at 4 µM, stronger effect = higher value
Screen size: about 290,000 compounds; about 1,800 (0.62%) were called active. The sample as a whole holds a higher share of actives than the screen did.
assay.endpoint: inhibition (%)
Write it as a number; the unit % goes unstated.

The cases that follow already have their inhibition on record.
CC1CCCN(C(=O)c2nn(C)c3c2CSc2ccccc2-3)C1 (stereo not drawn)	8
O=C(NCC(=O)N1CCN(c2ccccc2)CC1)c1ccccc1	-11.2
Nc1cc(=O)[nH]c(SCC(=O)Nc2cccc([N+](=O)[O-])c2)n1	0.5
N#Cc1c(-c2ccccc2)nc(SCc2ccc(Cl)cc2)[nH]c1=O	24.8
O=C(N/N=C/c1ccco1)c1ccc(NC(=O)c2ccccc2Cl)cc1	-2.4
CCOC(=O)c1nc2sc3c(c2c(=O)[nH]1)CCC(C)C3 (stereo not drawn)	45.5
CC(O)c1cccc(NC(=O)CCC(=O)O)c1 (stereo not drawn)	0.6
CCSc1nc(-c2ccccc2)c(C#N)c(=O)[nH]1	20

Sample O=C(O)COc1ccccc1/C=N/n1c(C2CCCCC2)n[nH]c1=S — what was its inhibition?
17.3

Sample CC1CC(C)CN(C(=O)c2nn(C)c3c2CSc2ccccc2-3)C1 (stereo not drawn) — what was its inhibition?
51.5

---

The following compounds are shown together with reported inhibition values.
protocol.notes: inhibition of NOD2-driven NF-kB reporter – cell-based, luminescence, uHTS, HEK293 (AID 1566)
reported.conditions: HEK293 NOD2/NF-kB luciferase reporter, at 4 µM, stronger effect = higher value
Among all 290,000 compounds or so, about 1,800 (0.62%) were called active. This excerpt belongs to a sample that is enriched for actives.
Write it as a number; the unit % goes unstated.

The cases that follow already have their inhibition on record.
COc1cccc(CN2C(=O)C(C)N(C(=O)c3c(F)cccc3F)c3ccccc32)c1 (configuration not stated)	45.6
Cn1c(=O)oc2cc(S(=O)(=O)N3CCC(C(=O)N4CC=C(c5ccccc5)CC4)CC3)ccc21	7.5
COc1cccc(CN2C(=O)C(C)N(C(=O)c3ccccc3)c3ccccc32)c1 (configuration not stated)	51
Cc1cc(C)c(S(=O)(=O)N2CCCOC2CNC(=O)C(=O)NCc2ccco2)c(C)c1 (configuration not stated)	15
COc1ccccc1N1CCN(C(=O)CCNS(=O)(=O)c2cc(Br)cnc2N)CC1	21

With those in mind, consider the next compound.
Sample CC(=O)Nc1ccc(NC(=O)c2sc(-c3ccccc3)nc2C)cc1 — what was its inhibition?
19.3

---

protocol.notes: inhibition of NOD2-driven NF-kB reporter – cell-based, luminescence, uHTS, HEK293 (AID 1566)
reported.conditions: HEK293 NOD2/NF-kB luciferase reporter, at 4 µM
Hit rate of the full screen: of about 290,000 compounds, about 1,800 (0.62%) were called active. Rule as the data show it: active = inhibition above about 50%; inactive = the rest. Only a selection was taken, and actives are over-represented in it overall.
Your response should consist of one outcome taken from class 1 for active, class 0 for inactive

Recorded results for 4 compounds are shown here.
COc1ccccc1N1CCN(C(=O)C2CCN(S(=O)(=O)c3ccc4c(c3)CC(C)N4C(=O)C3CC3)CC2)CC1 (stereo not drawn)	class 0
CC1CCCCN1C(=O)c1ccc(C(=O)N2CCCCC2C)cc1 (stereo not drawn)	class 0
COc1ccc(COC(=O)C2=C(C)NC(=O)NC2c2ccc(OC)cc2)cc1 (stereo not drawn)	class 0
Cc1nn(-c2ccccc2)c(Cl)c1/C=N/NC(=O)OC(C)(C)C	class 0

Per the records of this test, what outcome belongs to CCn1c(SCC(=O)N2CCN(c3ccccc3)CC2)nnc1-c1c[nH]c2ccccc12 ?
class 0

Per the records of this test, what outcome belongs to Cc1cc(OCC(=O)NCCc2ccc(S(N)(=O)=O)cc2)c2c(C)c(C)c(=O)oc2c1 ?
class 0

Per the records of this test, what outcome belongs to O=C(COc1ccccc1)NN1C(=O)CSC1=S ?
class 0

Per the records of this test, what outcome belongs to O=C1OCCC1Sc1nnc(-c2ccc3c(c2)OCO3)o1 (stereo not drawn) ?
class 0

Per the records of this test, what outcome belongs to Nc1ccc(-c2nc3c(Cl)cc(N)cc3[nH]2)cc1 ?
class 1

Per the records of this test, what outcome belongs to COCCn1c(Cc2cccn2C)nnc1SCC(=O)NCc1ccc2c(c1)OCO2 ?
class 0

Per the records of this test, what outcome belongs to O=C(Nc1ccc2cn[nH]c2c1)c1ccc(Cl)c(S(=O)(=O)N2CCOCC2)c1 ?
class 0

Per the records of this test, what outcome belongs to Cc1csc2c(N3CCN(C(=O)Nc4ccc(OC(F)(F)F)cc4)CC3)ncnc12 ?
class 0

Per the records of this test, what outcome belongs to O=C(c1ccc(Cl)cc1)N1CCCCC(Sc2nnc(-c3ccc4c(c3)OCO4)o2)C1=O (stereo not drawn) ?
class 0

Per the records of this test, what outcome belongs to COc1cccc(-c2cc(C(F)(F)F)n3ncc(C(=O)N4CCc5ccccc5C4)c3n2)c1 ?
class 0

Per the records of this test, what outcome belongs to CC1CN(CCOc2ccc(Cl)c(Cl)c2)CC(C)O1 (stereo not drawn) ?
class 0

Per the records of this test, what outcome belongs to CCn1c(C)c2c(C)nnc(C)c2c1C ?
class 0

Per the records of this test, what outcome belongs to CC(C)CN1CCN(CCCc2ccccc2)C(CCO)C1 (stereo not drawn) ?
class 0

Per the records of this test, what outcome belongs to CC(C)(C)c1ccc(-n2ncc3c2CCCC3NC(=O)CCN2CCCCC2=O)cc1 (stereo not drawn) ?
class 0

Per the records of this test, what outcome belongs to CCCCOCC(O)CN1CCN(C(C)=O)CC1 (stereo not drawn) ?
class 0

Per the records of this test, what outcome belongs to O=C1CCCCC1Sc1nnc(-c2ccc3c(c2)OCO3)o1 (stereo not drawn) ?
class 1

Per the records of this test, what outcome belongs to CCc1ccc(N2CN(Cc3ccco3)CNC2=S)cc1 ?
class 0

Per the records of this test, what outcome belongs to COc1ccc(-c2cc(=O)oc3cc(OCC(C)=O)ccc23)cc1 ?
class 0

Per the records of this test, what outcome belongs to Nc1ccc(-c2nc3ccc(N)cc3[nH]2)cc1 ?
class 0
